Hey, just so you know, these numbers are from patent US4383113A.

- Tested on: soybean
- Protocol Text: Test A pre-emergence
- Assay type: in vivo
- Set-up: key: 0 = no effect, 10 = maximum effect; letter = response symbol
- Condition Details: 0.4 kg/ha
- Text: The activity of these compounds was discovered in a number of greenhouse and field tests. The ratings are based on a numerical scale extending from 0=no effect, to 10=maximum effect. The accompanying descriptive symbols have the following meanings: […]
Here, each record is paired with measured response rating data.

Compound	Observed Value
CCCCCCOC(=O)c1ccccc1S(=O)(=O)NC(=O)Nc1nc(C)cc(COC)n1 [drawing 538]	0
COc1cc(C)nc(NC(=O)NS(=O)(=O)c2ccccc2C(=O)SC2CCCCC2)n1 [drawing 543]	9H
COc1cc(C)nc(NC(=O)NS(=O)(=O)c2ccccc2C(=O)NCc2ccccc2)n1 [drawing 531]	9H
COC(=O)c1ccccc1S(=O)(=O)NC(=O)Nc1nc(C)cc(OC)n1 [drawing 480]	9H
COc1nc(C)nc(NC(=O)NS(=O)(=O)c2ccccc2C(=O)OC(C)C)n1 [drawing 492]	9H

get_value(item= COc1nc(C)nc(NC(=O)NS(=O)(=O)c2ccccc2C(=O)OCCCl)n1 [drawing 493] , readout=response rating) returns 9H

What the record says about COc1cc(C)nc(NC(=O)NS(=O)(=O)c2ccccc2C(=O)SC)n1 [drawing 544] : response rating is 9H

Just so you know, measured response rating for COc1cc(C)nc(NC(=O)NS(=O)(=O)c2ccccc2C(=O)OCCOc2ccccc2)n1 [drawing 528] came out at 9H

The recorded response rating for C=CCCC(C)OC(=O)c1ccccc1S(=O)(=O)NC(=O)Nc1nc(C)nc(OC)n1 (stereo not shown) [drawing 522] is 9H

The recorded response rating for entry COC(=O)c1ccccc1S(=O)(=O)NC(=O)N(C)c1nc(C)cc(C)n1 [drawing 486] equals 0

Form field response rating, entry CCOCCOC(=O)c1ccccc1S(=O)(=O)NC(=O)Nc1nc(Cl)cc(Cl)n1 [drawing 520] : 0

* * *

Quick reference for response rating among some molecules
- Tested on: soybean
- Protocol Text: Test A pre-emergence
- Format: in vivo
- Parameters: key: 0 = no effect, 10 = maximum effect; letter = response symbol
- Condition Details: 0.4 kg/ha
Kindly answer with a numeric value in H, unit omitted.

Molecule	Target Desc	response rating, H
COc1cc(C)nc(NC(=O)NS(=O)(=O)c2ccccc2C(=O)OC2CCOC2)n1 (stereo not drawn) [drawing 513]	soybean	9
COc1cc(C)nc(NC(=O)NS(=O)(=O)c2ccccc2C(=O)SCc2ccccc2)n1 [drawing 542]	soybean	9

Please fill in: response rating reported for COCCc1nc(NC(=O)NS(=O)(=O)c2ccccc2C(=O)OC)nc(OC)n1 [drawing 541] = 9

* * *

This listing pairs compounds with measured response rating.
- System: corn
- Protocol Text: Test A pre-emergence
- Type: in vivo
- Design: key: 0 = no effect, 10 = maximum effect; letter = response symbol
- Condition Details: 0.4 kg/ha
The reply should be a number in H, with the unit left off.

Examples from the recorded data:
Compound	Measured Metric	Observed Value
COc1cc(C)nc(NC(=O)NS(=O)(=O)c2ccccc2C(=O)OC(C)CCl)n1 (centres unmarked) [drawing 545]	response rating	9
COc1cc(C)nc(NC(=O)NS(=O)(=O)c2ccccc2C(=O)OCCCl)n1 [drawing 488]	response rating	10
COC(=O)c1ccccc1S(=O)(=O)NC(=O)Nc1nc(OC)cc(OC)n1 [drawing 481]	response rating	9

# response rating (compound: COC(=O)c1ccccc1S(=O)(=O)NC(=O)Nc1nc(C)cc(OC)n1 [drawing 480] ) is 10

* * *

- Test system: cocklebur
- Protocol Text: Test A pre-emergence
- Assay type: in vivo, Xanthium spp.
- Condition Details: 2 kg/ha
Measured Metric: response rating (G)
Report the figure in G without appending any unit label.

For orientation, consider the following solved cases.
Molecule	Target Desc	Value Units	response rating
COC(=O)c1ccccc1S(=O)(=O)NC(=O)Nc1nc(C)cc(C)n1 [drawing 479]	cocklebur	G	9
COC(=O)c1ccccc1S(=O)(=O)NC(=O)Nc1ncccn1 [drawing 485]	cocklebur	G	9
CCOC(=O)c1ccccc1S(=O)(=O)NC(=O)Nc1nc(OC)cc(OC)n1 [drawing 508]	cocklebur	G	9

Sample CCCCOC(=O)c1ccccc1S(=O)(=O)NC(=O)Nc1nc(OC)cc(OC)n1 [drawing 506] , system: cocklebur. Its response rating is 9

Record CCCCOC(=O)c1ccccc1S(=O)(=O)NC(=O)Nc1nc(C)cc(OC)n1 [drawing 507] ; system cocklebur; response rating = 9

Observed response rating, cocklebur, COC(=O)c1ccccc1S(=O)(=O)NC(=O)Nc1nnc(C)c(C)n1 [drawing 484] : 9

* * *

- Tested on: purple nutsedge
- Protocol Text: Test F post-emergence
- Assay type: in vivo, Cyperus rotundus
- Condition Details: .004 kg/ha
Measured Metric: response rating after 4 weeks (C)
The figure you give is taken to be in C; do not add the unit.

Compound	Value Units	Observed Value
COC(=O)c1ccccc1S(=O)(=O)NC(=O)Nc1nc(OC)cc(OC)n1 [drawing 593]	C	8

Kindly review the next compound as well.
The compound listed as COc1nc(NC(=O)NS(=O)(=O)c2ccccc2C(=O)OC(C)C)nc(OC)n1 [drawing 600] shows response rating after 4 weeks equal to 8

* * *

response rating by entry:
- Tested on: sorghum
- Protocol Text: Test A post-emergence
- Assay type: in vivo
- Design: key: 0 = no effect, 10 = maximum effect; letter = response symbol
- Condition Details: 0.4 kg/ha
Respond with the bare value in C.

Examples with answers:
Compound	Value Units	Observed Value
C=CCOC(=O)c1ccccc1S(=O)(=O)NC(=O)Nc1nc(C)nc(OC)n1 [drawing 451]	C	9
COC(=O)c1ccccc1S(=O)(=O)NC(=O)Nc1nc(OC)cc(OC(C)C(=O)OC)n1 (stereo not shown) [drawing 468]	C	9
COC(=O)c1ccccc1S(=O)(=O)NC(=O)Nc1nc(OC)cc(OC)n1 [drawing 414]	C	9
COCCCOc1cc(C)nc(NC(=O)NS(=O)(=O)c2ccccc2C(=O)OC)n1 [drawing 470]	C	9
COC(=O)c1ccccc1S(=O)(=O)NC(=O)Nc1nc(C)nc(OC)n1 [drawing 415]	C	10

Param item: COc1cc(C)nc(NC(=O)NS(=O)(=O)c2ccccc2C(=O)N(C)C)n1 [drawing 465] ; param system: sorghum; output response rating: 9

With sorghum as the test system, COc1cc(OC)nc(NC(=O)NS(=O)(=O)c2ccccc2C(=O)OCCCl)n1 [drawing 420] showed response rating of 10

* * *

- Tested on: cassia
- Protocol Text: Test A post-emergence
- Assay type: in vivo, Cassia tora
- Set-up: key: 0 = no effect, 10 = maximum effect; letter = response symbol
- Condition Details: 0.4 kg/ha
Recorded measurements of response rating, one per entry
Expressed in C, but write only the number.

Compound	response rating / C
COC(=O)c1ccccc1S(=O)(=O)NC(=O)N(C)c1nc(C)cc(C)n1 [drawing 419]	2
COC(=O)c1ccccc1S(=O)(=O)NC(=O)Nc1nc(C)nc(N(C)C)n1 [drawing 472]	9
C=CCOC(=O)c1ccccc1S(=O)(=O)NC(=O)Nc1nc(C)nc(OC)n1 [drawing 451]	9
COc1nc(NC(=O)NS(=O)(=O)c2ccccc2C(=O)OC(C)C)nc(OC)n1 [drawing 438]	9
COc1cc(C)nc(NC(=O)NS(=O)(=O)c2ccccc2C(=O)OCCOCCOCCCl)n1 [drawing 448]	9
COC(=O)c1ccccc1S(=O)(=O)NC(=O)Nc1nc(OC)nc(OCC(F)(F)F)n1 [drawing 473]	10
COC(=O)c1ccccc1S(=O)(=O)NC(=O)Nc1nc(C)cc(OC)n1 [drawing 413]	9
C=CCCC(C)OC(=O)c1ccccc1S(=O)(=O)NC(=O)Nc1nc(C)nc(OC)n1 (stereo not drawn) [drawing 455]	9
COC(=O)c1cc(Cl)c(Cl)cc1S(=O)(=O)NC(=O)Nc1nc(C)cc(OC)n1 [drawing 452]	2
COc1nc(NC(=O)NS(=O)(=O)c2ccccc2C(=O)OC2CCCCC2)nc(OC)n1 [drawing 432]	5

For record COc1nc(C)nc(NC(=O)NS(=O)(=O)c2ccccc2C(=O)OC(C)C)n1 [drawing 425] the listed response rating is 10

// recorded response rating for CCCCCCOC(=O)c1ccccc1S(=O)(=O)NC(=O)Nc1nc(C)cc(COC)n1 [drawing 471] : 1

# response rating of COC(=O)c1cc(Cl)ccc1S(=O)(=O)NC(=O)Nc1nc(C)cc(OC)n1 [drawing 434] = 9

# response rating (compound: CCCC(OC(=O)c1ccccc1S(=O)(=O)NC(=O)Nc1nc(C)nc(OC)n1)C(C)C (stereo not drawn) [drawing 458] ) is 9

Record summary for COC(=O)c1cc([N+](=O)[O-])ccc1S(=O)(=O)NC(=O)Nc1nc(C)cc(OC)n1 [drawing 462] : reported response rating = 9

Memo: COc1cc(C)nc(NC(=O)NS(=O)(=O)c2ccccc2C(=O)SC2CCCCC2)n1 [drawing 476] , reported response rating: 9

The compound listed as CCOC(=O)c1ccccc1S(=O)(=O)NC(=O)Nc1nc(OC)cc(OC)n1 [drawing 442] shows response rating equal to 9

Lookup result for COc1cc(C)nc(NC(=O)NS(=O)(=O)c2ccccc2C(=O)N(C)C)n1 [drawing 465] ; measured response rating: 9

response rating in this record for COc1nc(C)nc(NC(=O)NS(=O)(=O)c2ccccc2C(=O)OC2CCCCCCC2)n1 [drawing 456] : 9

Memo: COc1cc(C)nc(NC(=O)NS(=O)(=O)c2ccccc2C(=O)OC(C)C)n1 [drawing 437] , reported response rating: 9
